Tested on: ppGalNAc-T3 sensor
method: T3 sensor activation Q score (MG/GFP ratio z-score vs DMSO controls) (SD units); higher = more sensor activation (inhibition of ppGalNAc-T3 glycosylation)
recorded conditions: HEK293 sensor cells; 10 µM; 6 h
Whole data set: some 1,700 compounds, median “T3 sensor activation Q score (MG/GFP ratio z-score vs DMSO controls)” near 0.25, cut for the highest 2% near 1.9. The sample holds the highest values, similar compounds and a random draw of the others, so the mix is not that of the screen.
Please enter fulfilled where T3 sensor activation Q score is greater than or equal to 0.4, and not fulfilled where it is lower.

molecule=Cn1nc(SCc2ccccc2)c(=O)n(C(c2ccccc2)c2ccccc2)c1=O label_value="not fulfilled"
molecule="C#CCOCC1CN(c2ccccc2)C(=O)O1 (stereo not given)" label_value=fulfilled
molecule=NS(=O)(=O)c1ccc(NC(=S)NC(=O)c2ccco2)cc1 label_value=fulfilled
molecule="COC(=O)CC1OCC=C2CN3CCC45C6=CC(=O)C(=O)C([N+](=O)[O-])=C6NC4C1C2CC35 (stereo not given)" label_value="not fulfilled"
molecule=CCOC(=O)Nc1c(Cl)n(C)c(=O)n(C)c1=O label_value=fulfilled
molecule=Oc1ccccc1Nc1ccccn1 label_value=fulfilled
molecule=CNC(=O)c1ccccc1Sc1ccc2c(/C=C/c3ccccn3)n[nH]c2c1 label_value=fulfilled
molecule="N#CC1C=Cc2c(ccc3ccccc23)N1C(=O)c1ccccc1 (stereo not given)" label_value=fulfilled
molecule=CCOC(=O)/C=C/c1nc(C(=O)OCC)c(C)c(=O)[nH]1 label_value=fulfilled
molecule=Cn1c(CO)cnc1-c1ccccc1 label_value="not fulfilled"

Incoming: Could you please find out whether CCOC(=O)c1nn(C)c2[nH]c(=O)n(C)c(=O)c12 has T3 sensor activation Q score that meets 0.4 or exceeds it?
Outgoing: not fulfilled

Incoming: Same lookup for O=C(O)CCC(=O)c1ccc2ccc3cccc4ccc1c2c34 , please.
Outgoing: fulfilled

Incoming: Same lookup for C[C@@H]1C[C@H]2OC(=O)[C@@]3(C)CCC[C@@](C)([C@@H]23)[C@@]1(O)CCc1ccoc1 , please.
Outgoing: not fulfilled

Incoming: Same lookup for Cc1ccc(CC#N)c(-c2c(CC#N)ccc(C)c2C)c1C , please.
Outgoing: not fulfilled

Incoming: Same lookup for C=CCNC(=S)NCC=C , please.
Outgoing: not fulfilled

Incoming: Same lookup for Cc1ccc(N=Nc2c(O)c3ccccc3[nH]c2=O)c(S(=O)(=O)N(C)C)c1 , please.
Outgoing: fulfilled

Incoming: Same lookup for C#CC1(O)CCC2C3CCC4=Cc5oncc5CC4(C)C3CCC21C (stereo not given) , please.
Outgoing: not fulfilled

Incoming: Same lookup for CNNCc1ccc(C(=O)NC(C)C)cc1 , please.
Outgoing: fulfilled

---

Each entry below lists one item and its recorded T3 sensor activation Q score value.
Test system: ppGalNAc-T3 sensor
method: T3 sensor activation Q score (MG/GFP ratio z-score vs DMSO controls) (SD units); higher = more sensor activation (inhibition of ppGalNAc-T3 glycosylation)
recorded conditions: HEK293 sensor cells; 10 µM; 6 h
Over roughly 1,700 compounds, “T3 sensor activation Q score (MG/GFP ratio z-score vs DMSO controls)” has its median near 0.25; the highest 2% begin near 1.9. The sample holds the highest values, similar compounds and a random draw of the others, so the mix is not that of the screen.
Quick one: just the number, no unit, thanks!

Completed entries (count: 5):
compound=NCCN1CCNCC1 recorded_endpoint="T3 sensor activation Q score" assay_value=1.85
compound="CC1CC=C(O)C12OCC(C)(C)CO2 (configuration not stated)" recorded_endpoint="T3 sensor activation Q score" assay_value=-0.05
compound=Nc1c(Cl)cc(S(N)(=O)=O)cc1S(N)(=O)=O recorded_endpoint="T3 sensor activation Q score" assay_value=1.1
compound="O=C(c1ccccc1)C1C(c2ccccc2)C1[N+](=O)[O-] (configuration not stated)" recorded_endpoint="T3 sensor activation Q score" assay_value=1.7
compound="O=[N+]([O-])C1C(c2ccccc2)C12c1ccccc1-c1ccccc12 (configuration not stated)" recorded_endpoint="T3 sensor activation Q score" assay_value=3.55

Incoming: Would you kindly share the measured T3 sensor activation Q score for S=c1[nH]cc2cnccn12 ?
Outgoing: -1.4

Incoming: Same lookup for OC(COc1ccc(Cl)cc1)CN1CCN(c2cccc(Cl)c2)CC1 (configuration not stated) , please.
Outgoing: -0.65

---

Test system: ppGalNAc-T3 sensor
method: T3 sensor activation Q score (MG/GFP ratio z-score vs DMSO controls) (SD units); higher = more sensor activation (inhibition of ppGalNAc-T3 glycosylation)
recorded conditions: HEK293 sensor cells; 10 µM; 6 h
The full ranking holds about 1,700 compounds; the median of “T3 sensor activation Q score (MG/GFP ratio z-score vs DMSO controls)” is about 0.25, and the highest 2% start at about 1.9. The list comes from a sample in which the highest values are over-represented; it also holds close analogues and randomly drawn compounds.
Please enter class 1 where T3 sensor activation Q score is greater than or equal to 0.2, and class 0 where it is lower.

Examples from the recorded data:
molecule=Cc1nnc2nc(-c3ccccc3)nc(-c3ccccc3)n12 test_system="ppGalNAc-T3 sensor" label_value="class 0"
molecule=NC(N)=Nc1ccc(N=C(N)N)cc1 test_system="ppGalNAc-T3 sensor" label_value="class 1"
molecule=C#Cc1cccc(NC(=O)c2ccc(Cl)cc2Cl)c1 test_system="ppGalNAc-T3 sensor" label_value="class 0"

Incoming: Could you please find out whether C#Cc1cccc(Nc2ncnc3cc(OCCOC)c(OCCOC)cc23)c1 has T3 sensor activation Q score that meets 0.2 or exceeds it?
Outgoing: class 1

Incoming: Same lookup for NC1(N2SC(S)=C3CCCC=C32)CCCCC1 , please.
Outgoing: class 1

Incoming: Same lookup for C[C@@H]1O[C@@H](Oc2c(-c3cc(O)c(O)c(O)c3)oc3cc(O)cc(O)c3c2=O)[C@H](O)[C@H](O)[C@H]1O , please.
Outgoing: class 0

Incoming: Same lookup for O=C1OC(CN(Cc2ccccc2)Cc2ccccc2)CN1/N=C/c1ccc([N+](=O)[O-])o1 (stereo unspecified) , please.
Outgoing: class 0

Incoming: Same lookup for NC(=O)Nc1ccc(Nc2ccccc2)cc1 , please.
Outgoing: class 1

---

Test system: ppGalNAc-T3 sensor
method: T3 sensor activation Q score (MG/GFP ratio z-score vs DMSO controls) (SD units); higher = more sensor activation (inhibition of ppGalNAc-T3 glycosylation)
recorded conditions: HEK293 sensor cells; 10 µM; 6 h
In all, about 1,700 compounds were measured (“T3 sensor activation Q score (MG/GFP ratio z-score vs DMSO controls)”: median about 0.25, highest 2% from about 1.9 on). The sample holds the highest values, similar compounds and a random draw of the others, so the mix is not that of the screen.
recorded endpoint: T3 sensor activation Q score
Quick one: just the number, no unit, thanks!

molecule=Nc1ccc2c(c1)Cc1cc(Cl)c(Cl)cc1-2 assay_value=-0.65

Now consider the entry below.
Incoming: Would you kindly share the measured T3 sensor activation Q score for O=C(Nc1ccc(Nc2ccncc2)cc1)c1ccc(Nc2ccnc3ccc([N+](=O)[O-])cc23)cc1[N+](=O)[O-] ?
Outgoing: -1.4

---

Test system: ppGalNAc-T3 sensor
method: T3 sensor activation Q score (MG/GFP ratio z-score vs DMSO controls) (SD units); higher = more sensor activation (inhibition of ppGalNAc-T3 glycosylation)
recorded conditions: HEK293 sensor cells; 10 µM; 6 h
Whole data set: some 1,700 compounds, median “T3 sensor activation Q score (MG/GFP ratio z-score vs DMSO controls)” near 0.25, cut for the highest 2% near 1.9. The full list was thinned out, with the highest values kept by preference.
Each entry below lists one item and its recorded T3 sensor activation Q score value.

Completed entries (count: 6):
compound="COC1=C[C@@H](C)[C@@H]2C[C@H]3OC(O)C[C@H]4C(C)=C(OC)C(=O)[C@H]([C@@]2(C)C1=O)[C@@]34C (some centres not stated)" assay_value=0.4
compound=CCOC(=O)/C=C/c1ccc(C(=O)OCC)[nH]1 assay_value=-1.5
compound=CCCNC(=O)c1ccccc1C(=O)NC1(C(=O)NCCC)CCCC1 assay_value=-0.35
compound=CCCSc1ncnc2[nH]ncc12 assay_value=1.45
compound=CC(=O)NS(=O)(=O)c1ccc2sc(C)nc2c1 assay_value=0.15
compound="O=C(CC1C=Cc2ccccc2N1C(=O)c1ccccc1)c1ccccc1 (configuration not stated)" assay_value=-1.4

Now consider the entry below.
Incoming: Give the reported T3 sensor activation Q score for C=CCNC(=S)NCC (system: ppGalNAc-T3 sensor).
Outgoing: 1.9

---

Tested on: ppGalNAc-T3 sensor
method: T3 sensor activation Q score (MG/GFP ratio z-score vs DMSO controls) (SD units); higher = more sensor activation (inhibition of ppGalNAc-T3 glycosylation)
recorded conditions: HEK293 sensor cells; 10 µM; 6 h
The full ranking holds about 1,700 compounds; the median of “T3 sensor activation Q score (MG/GFP ratio z-score vs DMSO controls)” is about 0.25, and the highest 2% start at about 1.9. Shown is part of a subset that was picked to be rich in the highest values.
Entry class follows T3 sensor activation Q score: bottom bin (below -0.1), middle bin (-0.1 to below 1), top bin (1 or more)

molecule=O=S(=O)(c1ccc2c(c1)CCCN2)N1CCC[C@H]2CCCC[C@@H]21 label_value="middle bin"
molecule=O=C(Nc1cccc([N+](=O)[O-])c1)c1cccc(C(=O)Nc2cccc([N+](=O)[O-])c2)c1 label_value="bottom bin"
molecule=CN(CCC#N)c1ccc(/C=C(\C#N)c2cccc(C(F)(F)F)c2)cc1 label_value="middle bin"
molecule=NC(=O)c1cc2c3ccccc3ccn2c1-c1ccccc1 label_value="top bin"

Incoming: Hello team, could you let me know which band the following molecule falls into: COc1cc(Cl)c(CC(=O)c2c[nH]c3ccccc23)cc1OC
Outgoing: top bin

Incoming: Same lookup for Cn1c(=O)c2[nH]c(N3CCCCC3)nc2n(C)c1=O , please.
Outgoing: top bin

Incoming: Same lookup for CCCc1nc2c([nH]1)c(=O)n(C)c(=O)n2C , please.
Outgoing: bottom bin

Incoming: Same lookup for Cn1cnc2ncnn2c1=S , please.
Outgoing: bottom bin

Incoming: Same lookup for COC1C(=O)CCC2(CO2)C1(O)C1(C)OC1CC=C(C)C (stereo not drawn) , please.
Outgoing: bottom bin

Incoming: Same lookup for C=CCOc1ccc(S(C)(=O)=O)cc1 , please.
Outgoing: top bin

Incoming: Same lookup for Cc1cc(C)n2c(C)nnc2c1 , please.
Outgoing: top bin

Incoming: Same lookup for c1ccc(-c2nc[nH]c2-c2ccccc2)cc1 , please.
Outgoing: middle bin
